ASSAY SYSTEM: Human CGRP Receptor (Homo sapiens, UniProt O60894+Q16602)
Construct: Crude membranes were prepared from SK-N-MC cells expressing CGRP receptors; endogenous in cells
Sequence (Q16602 23-461): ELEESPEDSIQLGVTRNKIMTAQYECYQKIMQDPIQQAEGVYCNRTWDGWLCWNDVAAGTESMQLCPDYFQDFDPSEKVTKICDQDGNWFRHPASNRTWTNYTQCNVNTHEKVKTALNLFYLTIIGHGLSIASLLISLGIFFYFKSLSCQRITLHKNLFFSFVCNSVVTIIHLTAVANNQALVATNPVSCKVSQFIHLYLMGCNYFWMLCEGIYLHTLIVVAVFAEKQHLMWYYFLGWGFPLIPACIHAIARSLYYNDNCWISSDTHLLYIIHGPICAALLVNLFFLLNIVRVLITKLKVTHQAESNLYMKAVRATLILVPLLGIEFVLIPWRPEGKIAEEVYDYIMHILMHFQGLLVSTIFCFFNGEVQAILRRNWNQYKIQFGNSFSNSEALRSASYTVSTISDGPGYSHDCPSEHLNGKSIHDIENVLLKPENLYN
Sequence (O60894 27-148): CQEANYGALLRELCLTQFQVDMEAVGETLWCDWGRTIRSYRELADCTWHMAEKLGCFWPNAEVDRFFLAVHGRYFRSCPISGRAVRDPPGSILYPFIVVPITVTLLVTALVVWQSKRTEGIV
ASSAY PROTOCOL: Radioligand binding assay, [125I]-CGRP displacement from SK-N-MC cell membranes
RUN PARAMETERS: SK-N-MC membranes (7 μg/well); [125I]-CGRP final 18 pM; room temperature 2 h; at least two separate experiments
pIC50: −log10 of the molar value.
PARAMETER MEASURED: pIC50

N[C@@H]1c2cccnc2[C@H](OC(=O)N2CCC(n3c(=O)[nH]c4ncccc43)CC2)CC[C@H]1c1cccc(F)c1F
10.40

P: O=C(O[C@@H]1CC[C@@H](c2cccc(F)c2F)/C(=N\O)c2cccnc21)N1CCC(n2c(=O)[nH]c3ncccc32)CC1
Q: O=C(O[C@@H]1CC[C@@](O)(c2cccc(F)c2F)[C@@H](O)c2cccnc21)N1CCC(n2c(=O)[nH]c3ncccc32)CC1 (single isomer, unassigned)
Which record shows the lower pIC50: the first, P , or the second, Q ? Choose, then provide that item's label.
Q

1: N[C@@H]1c2cccnc2[C@H](OC(=O)Nc2ccc3c(c2)CC2(C3)C(=O)Nc3ncccc32)CC[C@H]1c1cccc(F)c1F (some centres unmarked)
2: CN(C)[C@@H]1c2cccnc2[C@H](OC(=O)N2CCC(n3c(=O)[nH]c4ncccc43)CC2)CC[C@H]1c1cccc(F)c1F
Which record shows the lower pIC50: the first, 1 , or the second, 2 ? Choose, then provide that item's label.
2
(2: 8.70, 1: 8.92)

a: O=C(O[C@H]1c2ncccc2C[C@H](c2cccc(F)c2F)C[C@H]1O)N1CCC(n2c(=O)[nH]c3ncccc32)CC1
b: O=C(O[C@@H]1CC[C@@](O)(c2cccc(F)c2F)C(=O)c2cccnc21)N1CCC(n2c(=O)[nH]c3ncccc32)CC1 (single isomer, unassigned)
Which record shows the lower pIC50: the first, a , or the second, b ? Choose, then provide that item's label.
b

a: O=C(O[C@@H]1CC[C@H](c2cccc(F)c2F)[C@H](O)c2cccnc21)N1CCC(n2c(=O)[nH]c3ncccc32)CC1
b: [N-]=[N+]=N[C@@H]1c2cccnc2[C@H](OC(=O)N2CCC(n3c(=O)[nH]c4ncccc43)CC2)CC[C@H]1c1cccc(F)c1F
c: O=C1c2cccnc2[C@H](OC(=O)N2CCC(n3c(=O)[nH]c4ncccc43)CC2)CCC1c1cccc(F)c1F (mixture of isomers)
Sort the compounds on pIC50; start with the lowest figure. Write the labels in rank order as requested.
c, a, b
(c: 7.55, a: 8.07, b: 9.89)

---

ASSAY SYSTEM: Human CGRP Receptor (Homo sapiens, UniProt O60894+Q16602)
Construct: Crude membranes were prepared from SK-N-MC cells expressing CGRP receptors; endogenous in cells
ASSAY PROTOCOL: Radioligand binding assay, [125I]-CGRP displacement from SK-N-MC cell membranes
RUN PARAMETERS: SK-N-MC membranes (7 μg/well); [125I]-CGRP final 18 pM; room temperature 2 h; at least two separate experiments
PARAMETER MEASURED: IC50 (nM)

Sample answers from the record:
O=C(O[C@@H]1CC[C@@H](c2cccc(F)c2F)[C@H](O)c2cccnc21)N1CCC(n2c(=O)[nH]c3ncccc32)CC1
0.16
N[C@@H]1c2cccnc2[C@H](OC(=O)N2CCC(n3c(=O)[nH]c4ncccc43)CC2)CC[C@H]1c1cc(F)cc(F)c1
0.2
CN[C@@H]1c2cccnc2[C@H](OC(=O)N2CCC(n3c(=O)[nH]c4ncccc43)CC2)CC[C@H]1c1cccc(F)c1F
0.19

I: O=C(O[C@@H]1CCC(c2cccc(F)c2F)C(O)c2cccnc21)N1CCC(n2c(=O)[nH]c3ncccc32)CC1 (single isomer, unassigned)
II: O=C(O[C@@H]1CC[C@@H](c2cccc(F)c2F)/C(=N/O)c2cccnc21)N1CCC(n2c(=O)[nH]c3ncccc32)CC1
III: O=C(O[C@@H]1CC[C@@H](c2cc(F)cc(F)c2)[C@H](O)c2cccnc21)N1CCC(n2c(=O)[nH]c3ncccc32)CC1
Sort the compounds on IC50; start with the lowest figure. Write the labels in rank order as requested.
III, I, II

From: patent US8314117B2
